biological target: hMC4R (Homo sapiens, UniProt P32245); experiment: cAMP AlphaScreen bioassay, HEK293 cells stably expressing hMC4R; assay type: cell-based; set-up: expressed in transfected cells; conditions: hMC4R, cAMP
Sequence (P32245 whole entry): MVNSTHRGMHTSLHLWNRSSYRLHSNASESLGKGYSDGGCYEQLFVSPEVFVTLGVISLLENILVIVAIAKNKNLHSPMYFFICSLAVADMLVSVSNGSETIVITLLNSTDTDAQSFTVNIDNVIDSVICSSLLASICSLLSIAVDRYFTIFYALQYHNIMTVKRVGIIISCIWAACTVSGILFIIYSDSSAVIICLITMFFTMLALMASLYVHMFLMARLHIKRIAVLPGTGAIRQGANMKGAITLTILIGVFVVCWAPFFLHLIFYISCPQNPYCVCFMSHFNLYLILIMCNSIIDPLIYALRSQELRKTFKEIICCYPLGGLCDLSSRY
Square brackets hold non-standard residues; d marks the D form. Peptide text beside a SMILES is read from it. Dap = NC[C@H](N)C(=O)O
OBSERVABLE: Observed Inverse Agonism?

>>> reading("C[C@@H]1NC(=O)[C@H](CC(N)=O)NC(=O)[C@H](Cc2ccccc2)NC(=O)[C@H](Cc2ccccc2)NC(=O)[C@H](CS)NC(=O)[C@@H]2CCCN2C(=O)[C@H]2CCCN2C(=O)[C@H](Cc2ccccc2)NC1=O [ZMK 3-18, c[Pro-Cys-Phe-Phe-Asn-Ala-Phe-DPro]] (cyclo(PCFFNAF[dP]))")
"No"
>>> reading("C[C@@H]1NC(=O)[C@H](CN)NC(=O)[C@H](Cc2ccccc2)NC(=O)[C@H](Cc2ccccc2)NC(=O)[C@H](CS)NC(=O)[C@@H]2CCCN2C(=O)[C@H]2CCCN2C(=O)[C@H](Cc2ccccc2)NC1=O [ZMK 3-20, c[Pro-Cys-Phe-Phe-Dap-Ala-Phe-DPro]] (cyclo(PCFF[Dap]AF[dP]))")
"No"
>>> reading("CC(C)[C@@H]1NC(=O)[C@H](CC(N)=O)NC(=O)[C@H](Cc2ccccc2)NC(=O)[C@H](Cc2ccccc2)NC(=O)[C@H](CCCNC(=N)N)NC(=O)[C@@H]2CCCN2C(=O)[C@H]2CCCN2C(=O)[C@H](Cc2ccccc2)NC1=O [ZMK 2-82, c[Pro-Arg-Phe-Phe-Asn-Val-Phe-DPro]] (cyclo(PRFFNVF[dP]))")
"Yes"
>>> reading("C[C@@H]1NC(=O)[C@H](CC(N)=O)NC(=O)[C@H](Cc2ccccc2)NC(=O)[C@H](Cc2ccccc2)NC(=O)[C@H](Cc2c[nH]cn2)NC(=O)[C@@H]2CCCN2C(=O)[C@H]2CCCN2C(=O)[C@H](Cc2ccccc2)NC1=O [ZMK 2-96, c[Pro-His-Phe-Phe-Asn-Ala-Phe-DPro]] (cyclo(PHFFNAF[dP]))")
"Yes"

---

target: mMC4R (Mus musculus, UniProt P56450); assay: 125I-NDP-MSH competitive binding assay, transfected HEK293 cells, mMC4R; settings: binding IC50 versus control 1 (Asn) or 2 (Dap)
Sequence (P56450 whole entry): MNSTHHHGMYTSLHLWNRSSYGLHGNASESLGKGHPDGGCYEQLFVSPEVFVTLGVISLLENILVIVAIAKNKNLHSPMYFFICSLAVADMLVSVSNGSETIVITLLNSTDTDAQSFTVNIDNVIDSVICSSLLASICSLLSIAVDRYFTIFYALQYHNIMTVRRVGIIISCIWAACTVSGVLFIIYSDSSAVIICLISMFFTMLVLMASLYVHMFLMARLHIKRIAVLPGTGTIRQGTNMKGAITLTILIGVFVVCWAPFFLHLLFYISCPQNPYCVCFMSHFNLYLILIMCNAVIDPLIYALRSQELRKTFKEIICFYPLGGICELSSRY
Square brackets hold non-standard residues; d marks the D form. Peptide text beside a SMILES is read from it. Dap = NC[C@H](N)C(=O)O
OBSERVABLE: mMC4R Fold Diff
// keep it numeric: no unit symbol after the value

>>> reading("C[C@@H]1NC(=O)[C@H](CN)NC(=O)[C@H](Cc2ccccc2)NC(=O)[C@H](Cc2ccc(O)cc2)NC(=O)[C@H](CCCNC(=N)N)NC(=O)[C@@H]2CCCN2C(=O)[C@H]2CCCN2C(=O)[C@H](Cc2ccccc2)NC1=O [ZMK 2-112, c[Pro-Arg-Tyr-Phe-Dap-Ala-Phe-DPro]] (cyclo(PRYF[Dap]AF[dP]))")
70

Then this compound:
Bench note: what mMC4R Fold Diff did C[C@@H]1NC(=O)[C@H](CC(N)=O)NC(=O)[C@H](Cc2ccccc2)NC(=O)[C@H](Cc2ccc(O)cc2)NC(=O)[C@H](CCCNC(=N)N)NC(=O)[C@@H]2CCCN2C(=O)[C@H]2CCCN2C(=O)[C@H](Cc2ccccc2)NC1=O [ZMK 2-110, c[Pro-Arg-Tyr-Phe-Asn-Ala-Phe-DPro]] (cyclo(PRYFNAF[dP])) show? 100
